tested on: primary cortico-hippocampal neuron cultures; assay: lactate dehydrogenase (LDH) activity assay in parallel neuron cultures; conditions: primary screening; table sorted by Aβ1-42
Structures can show the parent of a compound that is named as a salt.
Readout Type: LDH (% of ctl)

Solved entries (count: 10):
CCOC(=O)[N-]c1cn(N2CCOCC2)n[o+]1
1127.4 % of ctl
COC(=O)C1=C(C)NC(C)=C(C(=O)OC)C1c1ccccc1[N+](=O)[O-]
76.1 % of ctl
CO[C@H]1[C@H](O)[C@H](O[C@H]2CC[C@@]3(C=O)[C@H](CC[C@@H]4[C@@H]3CC[C@]3(C)[C@@H](C5=CC(=O)OC5)CC[C@]43O)C2)O[C@@H](C)[C@@H]1O [Peruvoside]
105.5 % of ctl
COc1ccc(Cc2nccc3cc(OC)c(OC)cc23)cc1OC [Papaverine Hydrochloride]
118.4 % of ctl
COCCc1ccc(OCC(O)CNC(C)C)cc1 (stereo not drawn) [Metoprolol Tartrate]
107.5 % of ctl
C[C@H]1O[C@@H](O[C@H]2[C@@H](O)C[C@H](O[C@H]3[C@@H](O)C[C@H](O[C@H]4CC[C@@]5(C)[C@H](CC[C@@H]6[C@@H]5CC[C@]5(C)[C@@H](C7=CC(=O)OC7)CC[C@]65O)C4)O[C@@H]3C)O[C@@H]2C)C[C@H](O)[C@@H]1O
106.4 % of ctl
CC(N)CCCC(C)(C)O (stereo not drawn) [Heptaminol Hydrochloride]
103.4 % of ctl
CCOC(=O)[C@H](CCc1ccccc1)N[C@@H](C)C(=O)N1CCC[C@H]1C(=O)O [Enalapril Maleate]
118.9 % of ctl
Cc1cc(C(C)(C)C)cc(C)c1CC1=NCCN1 [Xylometazoline Hydrochloride]
110.8 % of ctl
C=C[C@H]1C[N@@]2CC[C@H]1C[C@@H]2[C@@H](O)c1ccnc2ccc(OC)cc12 [Quinidine Gluconate]
357.6 % of ctl

### Prompt Tell me LDH (% of ctl) reported for CCCC(=O)Nc1ncnc2c1ncn2[C@@H]1O[C@@H]2COP(=O)(O)O[C@H]2[C@H]1OC(=O)CCC
### Response 357.1 % of ctl

### Prompt Note LDH (% of ctl) for the compound shown: NS(=O)(=O)c1cc2c(cc1Cl)NC(C(Cl)Cl)NS2(=O)=O (stereo not drawn) [Trichlormethiazide]
### Response 102.6 % of ctl

### Prompt Provide only the value of recorded LDH (% of ctl) for COCCOC(=O)C1=C(C)NC(C)=C(C(=O)OC(C)C)C1c1cccc([N+](=O)[O-])c1 (stereo not drawn)
### Response 100.4 % of ctl

### Prompt Identify measured LDH (% of ctl) corresponding to CCCNCC(O)COc1ccccc1C(=O)CCc1ccccc1 (stereo not drawn) [Propafenone Hydrochloride]
### Response 113.7 % of ctl

### Prompt Give a short answer stating reported LDH (% of ctl) for CC(C)COCC(CN(Cc1ccccc1)c1ccccc1)N1CCCC1 (stereo not drawn) [Bepridil Hydrochloride] .
### Response 1885.2 % of ctl

* * *

system: Aβ1-40; assay: Aβ1-40 content in conditioned medium of primary cortico-hippocampal neuron cultures from Tg2576 mice (ELISA; primary and secondary dose-response screening); format: cell-based, mouse; settings: Mus musculus, Neuron, 24 h, primary screening, drug 100 μM, Tg2576 neuron cultures; table sorted by Aβ1-42; read-out: Ab1-40 (% of ctl)
Structures can show the parent of a compound that is named as a salt.
Readout Type: activity at 100 µM (%)
Output spec: scalar in %, unitless text.

Field: example entries. Status: answers known.
NS(=O)(=O)c1cc2c(cc1Cl)N=C(CSCc1ccccc1)NS2(=O)=O [Benzthiazide]
106
CCOC(=O)[C@H](CCc1ccccc1)N[C@H]1CCc2ccccc2N(CC(=O)O)C1=O [Benazepril Hydrochloride]
116
COc1cc2ccc(=O)oc2cc1O
71.9
CC(CCc1ccccc1)NCC(O)c1ccc(O)c(C(N)=O)c1 (centres unmarked) [Labetalol Hydrochloride]
84.9

### Prompt Supply measured activity at 100 µM of CNC1(C)C2CCC(C2)C1(C)C (centres unmarked) [Mecamylamine Hydrochloride] in your reply.
### Response 124
